These entries and their values trace back to patent US8058243B2.

test system: murine neural precursor cells (neurosphere cultures); assay: HTS of LOPAC library against secondary neurosphere cultures, MTT proliferation assay at 3 μM, day 7 (z score, P value); assay type: cell-based, mouse; details: LOPAC primary screen, neurosphere MTT proliferation, 3 μM, day 7
Where a name gives a salt, the structure may show the parent alone.
Assay Readout: Z score
Give a plain numeric answer without units written out.

In the examples that follow, each entry is paired with its recorded Z score.
INSERT INTO results (compound, val) VALUES
  ('Cc1cccc(C(=O)NCN2CCN(c3ccccc3C#N)CC2)c1.O=C(O)/C=C\C(=O)O [PD 168,077 maleate]', '−1.516'),
  ('Nc1nc(O)c2ncn(COC(CO)CO)c2n1', '−8.939'),
  ('CCCCCCCCCCCCCC(=O)O[C@@H]1[C@@H](C)[C@@]2(O)[C@@H](C=C(CO)C[C@]3(O)C(=O)C(C)=C[C@@H]23)[C@@H]2C(C)(C)[C@]12OC(C)=O [Phorbol 12-myristate 13-acetate]', '−0.265'),
  ('CC12CC3CC(C)(C1)CC(N)(C3)C2 [Memantine hydrochloride]', '−0.141'),
  ('Cc1ccc(/C(=C\CN2CCCC2)c2ccccn2)cc1 [Triprolidine hydrochloride]', '−0.406'),
  ('C=C(C)[C@H]1Cc2c(ccc3c2O[C@@H]2COc4cc(OC)c(OC)cc4[C@@H]2C3=O)O1', '−11.274');

Query: Any idea what its Z score is? The compound is CNC[C@H](O)c1ccc(O)c(O)c1.O=C(O)C(O)C(O)C(=O)O [(−)-Epinephrine bitartrate]
Reply: −0.530

Query: Any idea what its Z score is? The compound is CNC(=C[N+](=O)[O-])NCCSCc1ccc(CN(C)C)o1 [Ranitidine hydrochloride]
Reply: 0.023

Query: Any idea what its Z score is? The compound is CCCCCCCCCCCCCCCCOCC(COCC(F)(F)F)OP(=O)(O)OC (centres unmarked)
Reply: 1.364
